# MEASURED TARGET: T1, PACAP38 (human, not fully specified)
# T1 peptide: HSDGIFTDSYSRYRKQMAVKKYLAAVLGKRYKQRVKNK
# TEST NAME: cell-based or functional assay
Could you please report measured PACAP-38 IC50 for the items listed next?
Write the answer as a number in nM, unit excluded.

Sure, the documented PACAP-38 IC50 for 627C (antibody, V domains shown) VH: EVQLVQSGAEVKKPGSSVKVSCKASGGTFSDVYMHWVRQAPGQGLEWMGLIYPIFADTRYAQKFQGRVTITADESTSTAYMELSSLRSEDTAVYYCAIDQDGSFAYWGQGTLVTVSS VL: DIVMTQSPDSLAVSLGERATINCKSSQSLLDSDGKTYLNWLQQKPGQPPKRLIYWASTRESGVPDRFSGSGSGTDFTLTISSLQAEDVAVYYCWQGTWFDLTFGGGTKVEIKR is 0.4

Sure, the documented PACAP-38 IC50 for 605C (antibody, V domains shown) VH: EVQLVQSGAEVKKPGSSVKVSCKASGGTFSDSYMHWVRQAPGQGLEWMGLIYPIFADTRYAQKFQGRVTITADESTSTAYMELSSLRSEDTAVYYCAIDQDGSFAYWGQGTLVTVSS VL: DIVMTQSPDSLAVSLGERATINCKSSQSLLDADGKTYLNWLQQKPGQPPKRLIYWASTRESGVPDRFSGSGSGTDFTLTISSLQAEDVAVYYCWQGTWFDLTFGGGTKVEIK is 0.15

Sure, the documented PACAP-38 IC50 for 608C (antibody, V domains shown) VH: EVQLVQSGAEVKKPGSSVKVSCKASGGTFSDLYMHWVRQAPGQGLEWMGLIYPIFADTRYAQKFQGRVTITADESTSTAYMELSSLRSEDTAVYYCAIDQDGSFAYWGQGTLVTVSS VL: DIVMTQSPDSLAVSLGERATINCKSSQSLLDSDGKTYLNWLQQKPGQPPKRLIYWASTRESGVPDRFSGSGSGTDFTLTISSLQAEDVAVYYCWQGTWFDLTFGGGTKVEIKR is 0.7
